meta.source: ChEMBL document CHEMBL3875215

pIC50: −log10 of the molar value.
Consider compounds characterized by their pIC50 with Beta-secretase 1 (Homo sapiens).
Sequence (P56817 whole entry): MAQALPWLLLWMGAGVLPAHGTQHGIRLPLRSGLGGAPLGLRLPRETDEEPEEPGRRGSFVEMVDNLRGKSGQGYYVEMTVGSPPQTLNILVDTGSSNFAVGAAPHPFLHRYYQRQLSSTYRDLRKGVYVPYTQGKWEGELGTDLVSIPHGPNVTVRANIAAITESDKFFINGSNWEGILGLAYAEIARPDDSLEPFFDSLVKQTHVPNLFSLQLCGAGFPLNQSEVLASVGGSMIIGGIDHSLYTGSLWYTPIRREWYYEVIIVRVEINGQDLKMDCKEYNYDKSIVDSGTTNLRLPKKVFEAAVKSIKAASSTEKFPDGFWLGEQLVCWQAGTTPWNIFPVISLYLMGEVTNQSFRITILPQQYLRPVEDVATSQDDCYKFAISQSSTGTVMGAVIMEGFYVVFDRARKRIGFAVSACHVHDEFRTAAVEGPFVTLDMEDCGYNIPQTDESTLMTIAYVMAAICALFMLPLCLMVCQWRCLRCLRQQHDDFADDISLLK

{"smiles repr": "OC[C@@H]1Cc2c([nH]c3ccccc23)CN1Cc1cn(C[C@@H]2Cc3c([nH]c4ccccc34)CN2)nn1", "operator symbol": "=", "pIC50": 4.78}
{"smiles repr": "O=C(/C=C/c1ccc(O)c(O)c1)NCc1cn(C[C@@H]2Cc3c([nH]c4ccccc34)CN2)nn1", "operator symbol": "<", "pIC50": 4.30}

* * *

molecular target: UniProtKB P05067; assay: Inhibition of human amyloid beta (1 to 42) aggregation incubated for 48 hrs under dark condition by ThT fluorescence assay
Sequence (P05067 whole entry): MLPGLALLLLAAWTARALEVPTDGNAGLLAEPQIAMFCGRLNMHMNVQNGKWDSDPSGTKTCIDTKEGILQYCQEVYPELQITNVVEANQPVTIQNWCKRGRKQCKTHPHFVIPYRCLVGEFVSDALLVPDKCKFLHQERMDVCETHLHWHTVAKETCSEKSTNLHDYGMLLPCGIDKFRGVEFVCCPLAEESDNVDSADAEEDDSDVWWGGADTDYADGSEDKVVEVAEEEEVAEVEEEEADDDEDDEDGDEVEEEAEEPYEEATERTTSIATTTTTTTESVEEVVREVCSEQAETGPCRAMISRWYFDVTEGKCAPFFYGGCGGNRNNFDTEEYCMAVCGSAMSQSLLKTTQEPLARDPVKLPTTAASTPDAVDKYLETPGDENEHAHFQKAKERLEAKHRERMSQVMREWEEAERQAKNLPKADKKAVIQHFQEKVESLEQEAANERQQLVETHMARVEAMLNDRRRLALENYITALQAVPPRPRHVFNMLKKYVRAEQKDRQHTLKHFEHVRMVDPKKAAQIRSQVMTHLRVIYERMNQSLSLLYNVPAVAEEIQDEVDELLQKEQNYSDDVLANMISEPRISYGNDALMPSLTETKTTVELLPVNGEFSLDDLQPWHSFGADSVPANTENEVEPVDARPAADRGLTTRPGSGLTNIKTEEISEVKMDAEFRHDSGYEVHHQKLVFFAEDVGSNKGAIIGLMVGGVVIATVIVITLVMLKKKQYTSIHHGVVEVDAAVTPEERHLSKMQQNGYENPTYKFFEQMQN

{"smiles repr": "OC[C@@H]1Cc2c([nH]c3ccccc23)CN1Cc1cn(C[C@@H]2Cc3c([nH]c4ccccc34)CN2)nn1", "IC50 [µM]": 66.4}
